# tgt: Transient receptor potential cation channel subfamily A member 1 (Homo sapiens)
# protocol: Antagonist activity at human TRPA1 expressed in HEK293 cells assessed as inhibition of Zn2+-induced intracellular calcium flux by FLIPR assay
# Format: functional, cell-based
Would you kindly list log10(IC50) for each of these molecules?
Recall that a logarithmic scale is used here: each number is log10 of IC50 in µM.

Recorded result, Cc1noc(C(C)C)c1C(=O)NC(C(=O)c1ccc(C#N)c(F)c1)C(C)(C)C (stereo not drawn) , log10(IC50): -0.70

Recorded result, Cc1noc(C(C)C)c1C(=O)NC(C(=O)c1ccc(C#N)cc1)C(C)C (stereo not drawn) , log10(IC50): 0.30

Recorded result, CC(C)C(NC(=O)c1ccccc1)C(=O)c1ccc(Br)cc1 (racemic) , log10(IC50): 0.10

Recorded result, CC(C)C(NC(=O)c1ccccc1C(F)(F)F)C(=O)c1ccc(C#N)cc1 (stereo not drawn) , log10(IC50): 0.70

Recorded result, CC(C)C(NC(=O)c1cnoc1C(C)(C)C)C(=O)c1ccc(C#N)cc1 (stereo not drawn) , log10(IC50): -0.30

Recorded result, CC(C)C(NC(=O)c1cc(C(F)(F)F)ccc1Cl)C(=O)c1ccc(C#N)cc1 (stereo not drawn) , log10(IC50): -0.50

Recorded result, CC(C)C(NC(=O)c1ccccc1)C(=O)c1ccc(F)cc1 (racemic) , log10(IC50): 0.90

Recorded result, CCCCCCCCCC(=O)NC(C(=O)c1ccc(C#N)cc1)C(C)C (stereo not drawn) , log10(IC50): 0.00

Recorded result, CC(C)C(NC(=O)c1ccc(Cl)cc1Cl)C(=O)c1ccc(C#N)cc1 (stereo not drawn) , log10(IC50): 0.40

Recorded result, CC(C)C(NC(=O)c1ccccc1)C(=O)c1ccc(Cl)cc1 (single isomer, unassigned; isomer 1) , log10(IC50): -0.40

Recorded result, CC(C)C(NC(=O)N(C)C(C)(C)C)C(=O)c1ccc(Cl)cc1 (stereo not drawn) , log10(IC50): -0.20

Recorded result, CC(C)C(NC(=O)c1ccc(Cl)cc1F)C(=O)c1ccc(C#N)cc1 (stereo not drawn) , log10(IC50): 0.60

Recorded result, O=C(NC(C(=O)c1ccc(Cl)cc1)C1CC1)c1ccccc1 (stereo not drawn) , log10(IC50): 0.30

Recorded result, CC(C)(C)C(NC(=O)c1ccccc1)C(=O)c1ccc(Cl)cc1 (stereo not drawn) , log10(IC50): -0.40

Recorded result, COc1ccc(C(=O)NC(C(=O)c2ccc(C#N)cc2)C(C)C)cc1 (stereo not drawn) , log10(IC50): 0.80

Recorded result, CC(C)C(NC(=O)c1cnn(C(C)(C)C)c1C(F)(F)F)C(=O)c1ccc2nonc2c1 (stereo not drawn) , log10(IC50): -0.40

Recorded result, CC(C)C(NC(=O)OC(C)(C)C)C(=O)c1ccc(C#N)cc1 (stereo not drawn) , log10(IC50): 0.40

Recorded result, CC(C)C(NC(=O)c1cc(Cl)ccc1F)C(=O)c1ccc(C#N)cc1 (stereo not drawn) , log10(IC50): 0.30

Recorded result, CC(C)C(NC(=O)c1ccccc1)C(=O)c1ccc(Cl)cc1 (racemic) , log10(IC50): 0.10

Recorded result, CC(C)C(NC(=O)OC(C)(C)C)C(=O)c1ccc(C#N)c(F)c1 (stereo not drawn) , log10(IC50): 0.30

Recorded result, CC(C)C(NC(=O)OC(C)(C)C)C(=O)c1ccc(Cl)cc1 (stereo not drawn) , log10(IC50): -0.10

Recorded result, Cc1noc(-c2ccccc2)c1C(=O)NC(C(=O)c1ccc(C#N)cc1)C(C)C (stereo not drawn) , log10(IC50): 0.60

Recorded result, CC(C)C(NC(=O)N1CCc2ccccc2C1)C(=O)c1ccc(C#N)cc1 (stereo not drawn) , log10(IC50): 0.70

Recorded result, CC(C)C(NC(=O)OC(C)(C)C)C(=O)c1ccc(Cl)cn1 (stereo not drawn) , log10(IC50): 1.20

Recorded result, CC(C)C(NC(=O)c1ccccc1)C(=O)c1ccc([N+](=O)[O-])cc1 (racemic) , log10(IC50): -0.60

Recorded result, CC(C)C(NC(=O)c1cc(Cl)ccc1C(F)(F)F)C(=O)c1ccc([N+](=O)[O-])cc1 (stereo not drawn) , log10(IC50): -2.00

Recorded result, CC(C)C(NC(=O)NC(C)(C)C)C(=O)c1ccc(Cl)cc1 (stereo not drawn) , log10(IC50): 0.40

Recorded result, CC(C)C(NC(=O)c1cc2ccccc2n1C)C(=O)c1ccc(C#N)cc1 (stereo not drawn) , log10(IC50): 0.20

====

Would you kindly list solubility kinetic for each of these molecules?
# protocol: Solubility of the compound in phosphate buffer at pH 7.4 by dried DMSO method
# Format: physicochemical
Express it in µM; write the number only.

Recorded result, CC(C)C(NC(=O)c1ccccc1)C(=O)c1ccc(C#N)cc1 (racemic) , solubility kinetic: 150

Recorded result, Cc1noc(C(C)C)c1C(=O)NC(C(=O)c1ccc(C#N)c(F)c1)C(C)(C)C (stereo not drawn) , solubility kinetic: 80

====

# tgt: Transient receptor potential cation channel subfamily A member 1 (Homo sapiens, UniProt O75762)
# Sequence (O75762 whole entry): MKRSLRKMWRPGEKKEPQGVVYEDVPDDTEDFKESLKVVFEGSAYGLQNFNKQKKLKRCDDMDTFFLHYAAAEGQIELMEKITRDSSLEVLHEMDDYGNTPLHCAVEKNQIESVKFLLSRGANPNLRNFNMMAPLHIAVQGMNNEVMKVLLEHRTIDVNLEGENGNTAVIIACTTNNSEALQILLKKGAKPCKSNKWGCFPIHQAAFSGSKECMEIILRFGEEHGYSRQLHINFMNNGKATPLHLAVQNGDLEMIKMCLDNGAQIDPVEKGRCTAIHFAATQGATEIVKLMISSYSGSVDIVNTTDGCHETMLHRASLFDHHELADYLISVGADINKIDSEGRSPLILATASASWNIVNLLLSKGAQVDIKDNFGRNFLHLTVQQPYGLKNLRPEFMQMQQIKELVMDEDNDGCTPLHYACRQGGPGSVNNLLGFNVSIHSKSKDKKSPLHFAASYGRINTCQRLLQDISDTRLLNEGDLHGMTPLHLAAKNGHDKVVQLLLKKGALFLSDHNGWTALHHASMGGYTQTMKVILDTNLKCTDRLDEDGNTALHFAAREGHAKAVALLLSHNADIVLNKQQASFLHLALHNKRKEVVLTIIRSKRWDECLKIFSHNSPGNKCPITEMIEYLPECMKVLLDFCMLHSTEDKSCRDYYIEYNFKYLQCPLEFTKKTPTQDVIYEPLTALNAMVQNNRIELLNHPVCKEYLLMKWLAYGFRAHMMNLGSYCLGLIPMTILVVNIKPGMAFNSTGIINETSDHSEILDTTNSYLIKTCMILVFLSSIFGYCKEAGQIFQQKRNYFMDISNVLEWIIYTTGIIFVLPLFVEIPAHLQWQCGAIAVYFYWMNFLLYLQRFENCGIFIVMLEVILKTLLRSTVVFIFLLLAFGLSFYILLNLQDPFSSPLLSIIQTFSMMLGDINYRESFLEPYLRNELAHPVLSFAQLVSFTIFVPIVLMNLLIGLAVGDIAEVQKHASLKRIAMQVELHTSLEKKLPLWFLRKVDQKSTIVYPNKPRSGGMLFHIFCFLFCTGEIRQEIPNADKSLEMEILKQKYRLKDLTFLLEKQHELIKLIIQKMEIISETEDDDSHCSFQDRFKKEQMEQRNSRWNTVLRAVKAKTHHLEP
# protocol: Antagonist activity at human TRPA1 expressed in HEK293 cells assessed as inhibition of Ca2+-induced intracellular calcium flux by FLIPR assay
# Type: functional, cell-based
measured-endpoint: pIC50
Quick note: pIC50 means taking -log10 of the concentration in moles per liter.

Recorded result, CC(C)C(NC(=O)N(C)C(C)(C)C)C(=O)c1ccc(C#N)cc1 (stereo not drawn) , pIC50: 5.40

Recorded result, CC(C)C(NC(=O)OC(C)(C)C)C(=O)c1ccc(Cl)cn1 (stereo not drawn) , pIC50: 5.30

Recorded result, CC(C)C(NC(=O)c1ccccc1)C(=O)c1ccc(C#N)cc1 (racemic) , pIC50: 5.40

Recorded result, CCCCCCCCCC(=O)NC(C(=O)c1ccc(C#N)cc1)C(C)C (stereo not drawn) , pIC50: 5.70

Recorded result, CC(C)C(NC(=O)c1cc2ccccc2n1C)C(=O)c1ccc(C#N)cc1 (stereo not drawn) , pIC50: 5.40

Recorded result, CC(C)C(NC(=O)c1cc(C(F)(F)F)ccc1Cl)C(=O)c1ccc(C#N)cc1 (stereo not drawn) , pIC50: 6.40

Recorded result, CC(C)C(NC(=O)c1ccccc1)C(=O)c1ccc(Cl)cc1 (racemic) , pIC50: 5.60

Recorded result, Cc1noc(C(C)C)c1C(=O)NC(C(=O)c1ccc(C#N)cc1)C(C)C (stereo not drawn) , pIC50: 5.80

Recorded result, CC(C)C(NC(=O)c1ccccc1)C(=O)c1ccc(Br)cc1 (racemic) , pIC50: 5.10

Recorded result, CC(C)C(NC(=O)N(C)C(C)(C)C)C(=O)c1ccc(Cl)cc1 (stereo not drawn) , pIC50: 6.60

Recorded result, CC(C)C(NC(=O)OC(C)(C)C)C(=O)c1ccc(C#N)c(F)c1 (stereo not drawn) , pIC50: 5.90

Recorded result, CC(C)C(NC(=O)c1ccc(Cl)cc1F)C(=O)c1ccc(C#N)cc1 (stereo not drawn) , pIC50: 5.50

Recorded result, Cc1noc(-c2ccccc2)c1C(=O)NC(C(=O)c1ccc(C#N)cc1)C(C)C (stereo not drawn) , pIC50: 5.10

Recorded result, CC(C)C(NC(=O)c1ccccc1)C(=O)c1ccc(F)cc1 (racemic) , pIC50: 5.30

Recorded result, CC(C)C(NC(=O)NC(C)(C)C)C(=O)c1ccc(Cl)cc1 (stereo not drawn) , pIC50: 5.70

Recorded result, CC(C)C(NC(=O)c1ccc(Cl)cc1)C(=O)c1ccc(C#N)cc1 (stereo not drawn) , pIC50: 6.40

Recorded result, CC(C)C(NC(=O)c1cnoc1C(C)(C)C)C(=O)c1ccc(C#N)cc1 (stereo not drawn) , pIC50: 6.00

Recorded result, CC(C)(C)C(NC(=O)c1ccccc1)C(=O)c1ccc(Cl)cc1 (stereo not drawn) , pIC50: 6.00

Recorded result, CC(C)C(NC(=O)c1ccccc1)C(=O)c1ccc(Cl)cc1 (single isomer, unassigned; isomer 1) , pIC50: 6.00

Recorded result, CC(C)C(NC(=O)c1ccccc1)C(=O)c1ccc(Cl)c(Cl)c1 (racemic) , pIC50: 5.40

Recorded result, CC(C)C(C)(NC(=O)c1ccccc1)C(=O)c1ccc(Cl)cc1 (stereo not drawn) , pIC50: 5.50

Recorded result, CC(C)C(NC(=O)c1ccccc1)C(=O)c1ccc([N+](=O)[O-])cc1 (racemic) , pIC50: 6.50

Recorded result, CC(C)C(NC(=O)c1ccc(Cl)cc1Cl)C(=O)c1ccc(C#N)cc1 (stereo not drawn) , pIC50: 5.30

====

# tgt: Transient receptor potential cation channel subfamily A member 1 (Homo sapiens)
# protocol: Antagonist activity at human TRPA1 expressed in HEK293 cells assessed as inhibition of Zn2+-induced intracellular calcium flux by FLIPR assay
# Assay type: functional, cell-based
Calls of active or inactive are those of the source. The rule behind the calls is not given here.
measured-endpoint: pIC50

These solved cases illustrate the format of a correct answer.
CC(C)C(C)(NC(=O)c1ccccc1)C(=O)c1ccc(Cl)cc1 (stereo not drawn)    inactive
O=C(NC1(C(=O)c2ccc(Cl)cc2)CCC1)c1ccccc1    inactive
Cc1noc(C(C)C)c1C(=O)NC1C(=O)c2ccc(Cl)cc2CC1(C)C (stereo not drawn)    inactive
CC(C)C(NC(=O)c1ccccc1)C(=O)c1ccc(Cl)cc1 (single isomer, unassigned; isomer 2)    inactive
CC(C)C(NC(=O)NCc1ccccc1)C(=O)c1ccc(C#N)cc1 (stereo not drawn)    inactive

Field pIC50 (system: Transient receptor potential cation channel subfamily A member 1 (Homo sapiens)) for entry CC(C)C(NC(=O)c1ccccc1)C(=O)c1cccc(Cl)c1 (racemic) = < 4.5

Field pIC50 (system: Transient receptor potential cation channel subfamily A member 1 (Homo sapiens)) for entry CC(C)C(NC(=O)c1ccccc1)C(=O)c1ccccc1 (racemic) = < 4.5

Field pIC50 (system: Transient receptor potential cation channel subfamily A member 1 (Homo sapiens)) for entry CC(C)C(NC(=O)Nc1ccc(F)cc1)C(=O)c1ccc(C#N)cc1 (stereo not drawn) = inactive

Field pIC50 (system: Transient receptor potential cation channel subfamily A member 1 (Homo sapiens)) for entry CC(C)C(NC(=O)c1ccccc1)C(=O)c1ccc(N)cc1 (racemic) = inactive

Field pIC50 (system: Transient receptor potential cation channel subfamily A member 1 (Homo sapiens)) for entry CCCC(NC(=O)c1ccccc1)C(=O)c1ccc(Cl)cc1 (stereo not drawn) = inactive

Field pIC50 (system: Transient receptor potential cation channel subfamily A member 1 (Homo sapiens)) for entry O=C(CNC(=O)c1ccccc1)c1ccc(Cl)cc1 = inactive

Field pIC50 (system: Transient receptor potential cation channel subfamily A member 1 (Homo sapiens)) for entry CC(C)C(NC(=O)c1ccccc1)C(=O)c1ccc(S(C)(=O)=O)cc1 (racemic) = inactive

Field pIC50 (system: Transient receptor potential cation channel subfamily A member 1 (Homo sapiens)) for entry C=CCN(CC=C)c1ccc(C(=O)C(NC(=O)c2ccccc2)C(C)C)cc1 (racemic) = < 4.5
